# System: NCI-H322M lung
# procedure-summary: NCI-60 one-dose screen, 48 h (100 = growth as untreated, 0 = no growth, -100 = all killed)
# measurement-conditions: 10 µM unless noted
Compounds without any hit were thinned out: in the full panel of roughly 83,000, 20% have a hit.
If the reported growth equals or exceeds 80%, assign y. If not, assign n.

stdin: Quick check, growth >= 80%? CCCCNC(=O)Oc1ccc(/C(=C(/C)Cc2ccc(OC)cc2)c2ccc(OCCN(CC)CC)cc2)cc1
stdout: y

stdin: Moving on to the next molecule: Nc1n[nH]c2ccc([C@H]3[C@@H]4C5CCC(C5)[C@@H]4c4c(ccc5[nH]ncc45)N3S(=O)(=O)C3CC3)cc12 (some centres undefined)
stdout: n

stdin: Follow-up item: Cc1ccc2c(n1)C(=O)C(Br)=C(CC(C)C)C2=O
stdout: y

stdin: Please do the same for O=C(Nc1cccc(-c2ccc(N3CCOCC3)nn2)c1)Nc1cccc(C(F)(F)F)c1 as well.
stdout: y

stdin: Field entry: CCOC(=O)C1=C(N)Oc2c(sc3c(F)cccc23)C1c1ccc(O)cc1 (centres undefined)
stdout: n

stdin: Also NC(=O)C(=O)c1ccccc1NC=O ?
stdout: y

stdin: Moving on to the next molecule: CC/C(=C(/c1ccc(Cl)cc1)c1ccc(OCCN(C)C)cc1)c1ccc(Cl)cc1
stdout: y

stdin: Then this molecule: COC1/C=C/OC2(C)Oc3c(C)c(O)c4c(O)c(c(/C=N/Nc5ccc([N+](=O)[O-])cc5[N+](=O)[O-])c(O)c4c3C2=O)NC(=O)C(C)=C/C=C/C(C)C(O)C(C)C(O)C(C)C(OC(C)=O)C1C (centres undefined)
stdout: y

* * *

Provide the recorded growth for the entries that follow.
# System: UO-31 renal
# procedure-summary: NCI-60 one-dose screen, 48 h (100 = growth as untreated, 0 = no growth, -100 = all killed)
# measurement-conditions: 10 µM unless noted
About 83,000 compounds went through this panel and 20% of them were active in at least one assay; those are over-represented in the sample as a whole.
Numbers only; they are read as %.

stdin: Would you mind telling me what growth value was observed for CCCc1c(OC(=O)c2ccccc2)nc2[nH]c(=O)sc2c1C ?
stdout: 82.3

stdin: Input c1cnc2c(-c3nc4ccc5[nH]ncc5c4c4c3CCCC4)c[nH]c2c1
stdout: 43.7

stdin: Follow-up entry: CCOC(=O)c1nn(-c2ccc(S(N)(=O)=O)cc2)c2nc(C)cc(=O)n12
stdout: 86.1

stdin: Same lookup for CCCC/C(CC)=N\NS(=O)(=O)c1ccc([N+](=O)[O-])cc1 , please.
stdout: 83.3

stdin: Note, next up: C=C(C)[C@@H]1CC[C@]2(C(=O)O)CC[C@]3(C)[C@H](CC[C@@H]4[C@@]5(C)CCC(NC(=O)c6cccc(OC(C)=O)c6OC(C)=O)C(C)(C)[C@@H]5CC[C@]43C)[C@@H]12 (some centres undefined)
stdout: -39

stdin: Let us now turn to CN(C)CCNC(=O)c1ccc(-c2nc3ccc4[nH]ncc4c3c3c2C2CCC3C2)cc1 (centres undefined)
stdout: 8.05

stdin: Repeat for the following compound: O=C(CN1C(=O)S/C(=C\C(Cl)=C\c2ccccc2)C1=O)NCCc1ccc(O)cc1
stdout: -50.7

stdin: Try this compound too: CNc1nnc2n(-c3ccccc3)c(=O)c3cnn(-c4ccccc4)c3n12
stdout: 81.3

stdin: Query COc1cc2c(cc1OCCCN1CCN(CCCOc3cc4c(cc3OC)C(=O)N3CCC[C@H]3C=N4)CC1)C=CC(C)(C)O2 next
stdout: -58.8

* * *

# System: HOP-62 NSCLC
# procedure-summary: NCI-60 one-dose screen, 48 h
# measurement-conditions: 10 µM unless noted
This is part of a sample that, as a whole, favours compounds with a hit. Of some 83,000 tested, about 20% had one in any assay. The source made the active and inactive calls. Rule for the calls: active = growth percent below 10; inactive = the rest.
Choose the fitting class; nothing outside yes (1) (active), no (0) (inactive) is accepted.

stdin: Could you please tell me the result logged for COc1cc(/C=C/C(=O)c2ccc(F)cc2)ccc1OCCCCOc1ccc(/C=C/C(=O)c2c(C)nc3ccccc3c2C)cc1OC in this assay?
stdout: no (0)

stdin: Lookup COc1ccc(C/C(C)=C(\c2ccc(Cl)cc2)c2ccc(OCCN3CCCCC3)cc2)cc1
stdout: no (0)

stdin: How about O=C1Nc2ccccc2/C1=C/c1cccn1CCCCn1c2ccccc2c(=O)c2ccccc21 ?
stdout: no (0)

stdin: Would you kindly repeat that for COc1cc2cc(NCc3cccc(Cl)c3)nc(C)c2cc1OC ?
stdout: no (0)

stdin: Another compound: COC(=O)[C@]12CCC(C)(C)C[C@H]1[C@H]1/C(=N/OCCc3nn[nH]n3)C[C@@H]3[C@@]4(C)CC[C@H](OC(C)=O)C(C)(C)[C@@H]4CC[C@@]3(C)[C@]1(C)CC2
stdout: no (0)

stdin: Consider next the compound N#Cc1nc(-c2ccc(F)cc2)oc1S(=O)(=O)N1CCOCC1 in the same way.
stdout: no (0)

stdin: Do the same for COc1ccc(C(=O)C/C(=C\c2ccc(Cl)cc2)C(=O)NCc2ccccc2)cc1 please
stdout: no (0)

stdin: Again, but for CC1CCc2c(C(=O)Nc3ncc(Cc4cccc([N+](=O)[O-])c4)s3)csc2C1 (stereo not drawn)
stdout: no (0)

stdin: Again, but for COc1ccc(Cc2cnc(NC(=O)c3cc(C)oc3C)s2)cc1
stdout: no (0)

stdin: Now consider N#Cc1c(-c2ccc(Cl)cc2)nc(NN2C(=O)c3ccccc3C2=O)nc1N1CCOCC1 .
stdout: no (0)

stdin: Now consider COCCn1cc(-c2nc(-c3cc4cccnc4[nH]3)cs2)c2cc(OC)ccc21 and answer again.
stdout: no (0)

stdin: Try the compound Cc1ccc(C[P+](c2ccccc2)(c2ccccc2)c2ccccc2)cc1
stdout: no (0)

stdin: Next: O=C(O)c1cn(C2CC2)c2cc(N3CCN(Cc4ccc5ccccc5c4O)CC3)c(F)cc2c1=O
stdout: yes (1)

stdin: Ok, now Fc1cnccc1C1CC(c2ccc(N3CCNCC3)cc2)=NN1 (stereo not drawn)
stdout: no (0)

stdin: Would you kindly repeat that for COc1ccc(F)cc1/C=C/C(=O)/C=C(/C=C/c1cc(F)ccc1OC)OB(F)F ?
stdout: no (0)

stdin: Let us now turn to CN(c1cc2ncc(=O)[nH]c2cc1NC(N)=NCc1ccc(Cl)cc1)C1CCCCC1
stdout: no (0)

stdin: Next entry: CC(C)(Sc1cc(C(C)(C)C)c(OC(=O)CCCC(=O)O)c(C(C)(C)C)c1)Sc1cc(C(C)(C)C)c(OC(=O)CCCC(=O)O)c(C(C)(C)C)c1
stdout: no (0)

stdin: Next compound up: N#CC(C#N)N=Nc1ccc(Br)cc1
stdout: no (0)

stdin: Cool, now CCCC/C(CC)=N\NS(=O)(=O)c1ccc([N+](=O)[O-])cc1
stdout: no (0)

stdin: Ok, now CN(/C(N)=N/N=C/c1c2ccccc2cc2ccccc12)C1CCCCC1
stdout: no (0)

stdin: Now try COc1cc2ncnc(Nc3ccc(S(=O)(=O)Nc4cc(C)on4)cc3)c2cc1OCCCN1CCN(c2ccc(F)cc2)CC1 .
stdout: no (0)

stdin: Now this one: Nc1nc(N)c(-c2ccc(Cl)c(Cl)c2)c(CBr)n1
stdout: no (0)

stdin: CCC(C)N(CCNc1cc(OC)cc2cccnc12)CC(C)C (stereo not drawn) ?
stdout: no (0)

stdin: Can you handle O=C(CSc1nnc(-c2cnccn2)n1-c1ccccc1)c1ccc(Cl)cc1 next?
stdout: no (0)

stdin: Same question, C[PH+](c1nc2ccccc2nc1[PH+](C)C(C)(C)C)C(C)(C)C.C[PH+](c1nc2ccccc2nc1[PH+](C)C(C)(C)C)C(C)(C)C.[Au+].[Cl-] (stereo not drawn) this time
stdout: yes (1)

stdin: What about this compound? CCNCCNc1cc(-c2ccc(C(F)(F)F)cc2)c(C#N)c2nc3ccccc3n12
stdout: yes (1)

stdin: Also, Nc1c(C(=O)Nc2ccncc2)sc2nc3c(cc12)C(O)CCC3 (stereo not drawn) please.
stdout: no (0)

stdin: Same for O=C(Nc1ccccc1)Nc1ncnc2c1ncn2-c1ccc(Cl)cc1
stdout: no (0)

stdin: // query: C=C1C(=O)O[C@H]2[C@H]1CC/C(COC(=O)C(=O)c1cn(C)c3ccc(Cl)cc13)=C\CC[C@@]1(C)O[C@@H]21
stdout: yes (1)

stdin: Now give it for N#Cc1nc(-c2ccc(F)cc2)oc1S(=O)(=O)N1CCCCC1 too.
stdout: no (0)

stdin: Now this one: CSc1nc2ncc([N+](=O)[O-])c(=O)n2[nH]1
stdout: no (0)

stdin: Cool, now CCOC(=O)C1=C(N)Oc2c(sc3c(F)cccc23)C1c1ccc(O)cc1 (stereo not drawn)
stdout: no (0)

stdin: Query COC(=O)CC[C@H](C)[C@H]1CC[C@H]2[C@@H]3CC[C@@H]4CC5(CC[C@]4(C)[C@H]3CC(=O)[C@]12C)Nc1ccccc1NC5=NC(C)(C)C (stereo partly drawn) next
stdout: no (0)

stdin: Also N#Cc1nc(-c2ccccc2)oc1S(=O)(=O)N1CCN(c2ccccc2)CC1 ?
stdout: no (0)

stdin: Same question for C=C(C)[C@@H]1CC[C@]2(C(=O)O)CC[C@]3(C)[C@H](CC[C@@H]4[C@@]5(C)CCC(NC(=O)c6cccc(OC(C)=O)c6OC(C)=O)C(C)(C)[C@@H]5CC[C@]43C)[C@@H]12 (stereo partly drawn) please.
stdout: yes (1)

stdin: // next record CC(=O)n1nc(C(=O)OC(C)(C)c2ccccc2)c2ccccc21
stdout: no (0)

stdin: Then O=C(CSc1oc(-c2ccccc2)nc1S(=O)(=O)c1ccccc1)Nc1ccc(F)cc1 ?
stdout: no (0)

stdin: Then what about the compound O=S(=O)(Nc1ccc(Cl)c(C(F)(F)F)c1)c1ccc(-c2cnc(C3CC3)o2)cc1 ?
stdout: no (0)
